Measured IC50, listed per entry for reference.
system: human prostate adenocarcinoma PC-3; test: Antiproliferative activity, SRB assay, 72 h; assay type: cell-based; settings: Homo sapiens; PC-3, 72 h, SRB; read-out: IC50

{"molecule": "C#CCCC(=O)OC[C@]12CC[C@@H](C(=C)C)C1C1CCC3[C@@]4(C)CC[C@H](OC(=O)CC(C)(C)CC(=O)O)C(C)(C)C4CC[C@@]3(C)[C@]1(C)CC2 (stereo partly shown) [Compound 4b]", "IC50 / µM": 11.6}
{"molecule": "C=C(C)[C@@H]1CC[C@]2(COC(C)=O)CC[C@]3(C)[C@H](CC[C@@H]4[C@@]5(C)CC[C@H](O)C(C)(C)[C@@H]5CC[C@]43C)[C@@H]12 [A, 28-O-acetylbetulin, reference compound]", "IC50 / µM": 80.7}
{"molecule": "C#CCCC(=O)OC[C@]12CC[C@@H](C(=C)C)C1C1CCC3[C@@]4(C)CC[C@H](OC(=O)CCC(=O)O)C(C)(C)C4CC[C@@]3(C)[C@]1(C)CC2 (stereo partly shown) [Compound 6b]", "IC50 / µM": 13.2}
{"molecule": "C=C(C)[C@@H]1CC[C@]2(COC(=O)C#CC)CC[C@]3(C)C(CCC4[C@@]5(C)CC[C@H](OC(=O)CC(C)(C)C(=O)O)C(C)(C)C5CC[C@]43C)C12 (stereo partly shown) [Compound 5c]", "IC50 / µM": 22.9}
{"molecule": "C#CC(=O)OC[C@]12CC[C@@H](C(=C)C)C1C1CCC3[C@@]4(C)CC[C@H](OC(=O)CC(C)(C)CC(=O)O)C(C)(C)C4CC[C@@]3(C)[C@]1(C)CC2 (stereo partly shown) [Compound 4a]", "IC50 / µM": 0.86}
{"molecule": "C=C(C)[C@@H]1CC[C@]2(COC(=O)CC)CC[C@]3(C)C(CCC4[C@@]5(C)CC[C@H](OC(=O)CC(C)(C)CC(=O)O)C(C)(C)C5CC[C@]43C)C12 (stereo partly shown) [Compound 4d]", "IC50 / µM": 21.7}
{"molecule": "C=C(C)[C@@H]1CC[C@]2(CO)CC[C@]3(C)C(CCC4[C@@]5(C)CC[C@H](OC(=O)CC(C)(C)CC(=O)O)C(C)(C)C5CC[C@]43C)C12 (stereo partly shown) [Compound 4]", "IC50 / µM": 19.2}
